# ASSAY: Figure 6
Where a SMILES comes first, the peptide text is derived from it. Bridges are numbered along the chain shown (N, C = ends). [ ]: non-standard residue; d: D form. R8 = C=CCCCCCC[C@@](C)(N)C(=O)O; S5 = C=CCCC[C@](C)(N)C(=O)O; Nle = CCCC[C@H](N)C(=O)O; Aib = CC(C)(N)C(=O)O

COMPOUND	Cl, mL/min/kg
CCCC[C@H](NC(C)=O)C(=O)N[C@@H](CC(=O)O)C(=O)N[C@H](C(=O)N[C@@H](CC(N)=O)C(=O)NC(C)(C)C(=O)N[C@H](C(=O)N[C@]1(C)CCCCCCC=CCCC[C@@](C)(C(=O)N[C@@H](CCCNC(=N)N)C(N)=O)NC(=O)[C@H](C)NC(=O)[C@H](C(C)C)NC(=O)[C@H](CCCCN)NC(=O)[C@H](CC(C)C)NC(=O)[C@H](Cc2ccccc2)NC(=O)[C@H](CC(C)C)NC1=O)[C@@H](C)O)C(C)C [SP-15, Ac-NlcDVNAibT$r8LFLKVA$R-NH2] (Ac-[Nle]DVN[Aib]T[R8]LFLKVA[S5]R-NH2; staple 7-14)	1.97
CCCC[C@H](NC(C)=O)C(=O)N[C@@H](CC(=O)O)C(=O)N[C@H](C(=O)N[C@@H](CC(N)=O)C(=O)NC(C)(C)C(=O)N[C@H](C(=O)N[C@@H](CC(C)C)C(=O)N[C@@]1(C)CCCC=CCCC[C@@](C)(C(=O)N[C@@H](C)C(=O)N[C@@H](C)C(=O)N[C@@H](CCC(N)=O)C(N)=O)NC(=O)[C@H](CCCCN)NC(=O)[C@H](CC(C)C)NC(=O)[C@H](Cc2ccccc2)NC1=O)[C@@H](C)O)C(C)C [SP-9, Ac-NleDVNAibTL$FLK$AAQ-NH2] (Ac-[Nle]DVN[Aib]TL[S5]FLK[S5]AAQ-NH2; staple 8-12)	5.67
CCCC[C@H](NC(C)=O)C(=O)N[C@@H](CC(=O)O)C(=O)N[C@H](C(=O)N[C@@H](CC(N)=O)C(=O)NC(C)(C)C(=O)N[C@H](C(=O)N[C@@H](CC(C)C)C(=O)N[C@@H](CC(C)C)C(=O)N[C@@H](Cc1ccccc1)C(=O)N[C@@]1(C)CCCC=CCCC[C@@](C)(C(=O)N[C@@H](CCCNC(=N)N)C(N)=O)NC(=O)[C@H](C)NC(=O)[C@H](C(C)C)NC(=O)[C@H](CCCCN)NC1=O)[C@@H](C)O)C(C)C [SP-6, Ac-NleDVNAibTLLF$KVA$R-NH2] (Ac-[Nle]DVN[Aib]TLLF[S5]KVA[S5]R-NH2; staple 10-14)	4.65
